Molecular target: T1, recombinant human IL-25 protein (human, UniProt Q9H293 33-177)
T1 construct: Bought (Acro, catalog no: IL5-H4221) for ELISA; also called hIL-25; IL-17E
T1 sequence: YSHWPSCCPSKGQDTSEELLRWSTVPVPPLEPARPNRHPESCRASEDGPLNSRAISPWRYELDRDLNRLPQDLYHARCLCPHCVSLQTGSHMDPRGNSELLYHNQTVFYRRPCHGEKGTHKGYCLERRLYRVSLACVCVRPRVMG
Experiment: ELISA, IL-25 coated, goat anti-human IgG-HRP detection
Provide the reported pEC50 of each item.
Just the number, please; pEC50 means minus log10 of the concentration in mol/L.

For the binder shown here, IL25Ab2 (antibody, V domains shown) VH: QVTLKESGPGILQPSQTLSLTCSFSGFSLSTSGMGVGWIRQPSGKGLEWLAHIWWDDVKQYNPALQSRLTISKDTSSSQVFLKIASVDIADIATYYCARIGPVHHGFPYWGQGALVTVSS VL: QIVLTQSPAIMSAFPGEKVTMSCSASSSVNYMYWHQQKPGSSPRLLIYDTSNLASGVPVRFSGSGSGTSYSLTISRMEAEDAATYYCQQWTSYPPMYTFGGGTKLEIK , give the reported pEC50.
10.77

Would you kindly share the measured pEC50 for IL25Ab5 (antibody, V domains shown) VH: QVQLQQWGAGLLKPSETLSLTCAVYGGSFSAYYWSWIRQSPGKGLEWIGEINHGGNTNYSPSLKSRVTISVDTSKSQFSLKLSSVTAADTAAYYCARGPGITSWAFDFWDQGTMVTVSS VL: DIQMTQSPSSLSASVGDRVTIACQASQDINNYLNWYQQKPGKAPKLLIYDASNLETGVPSRFSGNGSGTDFTFTISSLQPEDIATFYCQQYDTLPYTFGQGTKLEIR ?
11.00

Hello, the source for this data is patent US20260242458A1, in case you need it.
